# PROTOCOL: recombinant barcode read abundance after kanamycin selection (control-corrected) (log10(CPM+1)); higher = more efficient recombination; sequences stand for … in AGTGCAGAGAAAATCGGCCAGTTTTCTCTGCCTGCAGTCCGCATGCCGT…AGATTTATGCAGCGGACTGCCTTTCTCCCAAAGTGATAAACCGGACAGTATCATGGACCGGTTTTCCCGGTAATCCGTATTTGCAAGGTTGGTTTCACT; site = the 11-nt target;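 note: IS621 recombinase and bridge RNA in Escherichia coli cells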
Recorded recombinant barcode read abundance (log10) for the following sequences
Reply: number alone, nothing else.

- GTCACCGCTTGGGTTCTAACCTGTTGCCT (site GTTACCGCTAG): 0.464
- AGTAAGACTTGGGTTCTAACCTGTTGCAT (site AGTAAGACTAG): 0.423
- ATAGGTTCTTGGGTTCTAACCTGTTGCCT (site ACAGGTTCTAG): 0.0769
- TCCTAAGCTTGGGTTCTAACCTGTTGCGG (site TCCTAAGCTCC): 1.67
- CTTGAGACTTGGGTTCTAACCTGTTGCCT (site CTTCAGGCTAG): 0.256
- TAGGATACTTGGGTTCTAACCTGTTGCAG (site TAGGATACTTT): 0.351
- CTTACTGCTTGGGTTCTAACCTGTTGCCT (site CTTACCGCTAG): 0.291
- TTGACACCTTGGGTTCTAACCTGTTGCCT (site GGAGTCACTCC): 0.0713

## Task Entry CTAGGCTCTTGGGTTCTAACCTGTTGCGG (site CTAGGCTCTCC) has what recombinant barcode read abundance (log10)?
## Result 2.32

## Task Entry GGTCATACTTGGGTTCTAACCTGTTGCCT (site GGTCATTCTAG) has what recombinant barcode read abundance (log10)?
## Result 0.246

## Task Entry GCCAACCCTTGGGTTCTAACCTGTTGCTT (site GCCAACCCTAA) has what recombinant barcode read abundance (log10)?
## Result 0.0414

## Task Entry TCGAGTTCTTGGGTTCTAACCTGTTGCCT (site TCGAGTTCTAG) has what recombinant barcode read abundance (log10)?
## Result 0.174

## Task Entry TAACCTACTTGGGTTCTAACCTGTTGCCT (site TAACCTGCTAG) has what recombinant barcode read abundance (log10)?
## Result 0.0455

###

Recorded recombinant barcode read abundance (log10) for the following sequences
# PROTOCOL: recombinant barcode read abundance after kanamycin selection (control-corrected) (log10(CPM+1)); higher = more efficient recombination; sequences stand for … in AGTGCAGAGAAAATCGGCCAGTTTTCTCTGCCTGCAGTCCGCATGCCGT…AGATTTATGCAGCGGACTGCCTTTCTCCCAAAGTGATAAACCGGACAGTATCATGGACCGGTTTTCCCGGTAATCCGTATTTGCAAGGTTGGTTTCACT; site = the 11-nt target
Reply: number alone, nothing else.

Here are 3 sequences together with their reported answers.
• CCTAAGACTTGGGTTCTAACCTGTTGCCA (site CCTAAGACTTG) = 0
• GTGAGGTCTTGGGTTCTAACCTGTTGCGT (site GTGAGGTCTAT) = 1.69
• ACGAGCCCTTGGGTTCTAACCTGTTGCCA (site ACGCACCCTTG) = 0.151

## Task Entry TAACCTACTTGGGTTCTAACCTGTTGCCT (site TAACCTCCTAG) has what recombinant barcode read abundance (log10)?
## Result 0.055

## Task Entry CGTGGTCCTTGGGTTCTAACCTGTTGCTT (site CGTGGTCCTAG) has what recombinant barcode read abundance (log10)?
## Result 0.342

## Task Entry CTGATGACTTGGGTTCTAACCTGTTGCCT (site CTGATGACTAG) has what recombinant barcode read abundance (log10)?
## Result 0.999
